- Organism: Rattus norvegicus
- Assay protocol: Open TG-GATES - Regimen: Daily Repeat
- Assay type: toxicity, organism-based, Sprague-Dawley
- Parameters: regimen Daily Repeat, gender Male, age 6 weeks
- Recorded conditions: in vivo, po, 1000 mg/kg, […], tissue Blood, route gavage, dose level High, time 14 day
Endpoint label: Plat

CCOC(=O)CCC(=O)O[C@H]1[C@H](O[C@@H]2[C@@H](C)[C@H](O[C@H]3C[C@@](C)(OC)[C@@H](O)[C@H](C)O3)[C@@H](C)C(=O)O[C@H](CC)[C@@](C)(O)[C@H](O)[C@@H](C)C(=O)[C@H](C)C[C@@]2(C)O)O[C@H](C)C[C@@H]1N(C)C [ERYTHROMYCIN ETHYLSUCCINATE]    107.4 x10_4/uL
NC(N)=Nc1nc(CSCCC(N)=NS(N)(=O)=O)cs1    117.7 x10_4/uL
COC1=CC(=O)C[C@@H](C)[C@]12Oc1c(Cl)c(OC)cc(OC)c1C2=O    114.7 x10_4/uL
COc1ccc2[nH]c([S+]([O-])Cc3ncc(C)c(OC)c3C)nc2c1 (stereo unspecified)    139.7 x10_4/uL
CC(C)OC(=O)C(C)(C)Oc1ccc(C(=O)c2ccc(Cl)cc2)cc1 [FENOFIBRATE]    135.5 x10_4/uL
CCOc1ccc(NC(=O)CC(C)O)cc1 (stereo unspecified)    126.3 x10_4/uL

###

Some compounds, each annotated with its measured APTT.
- Species on record: Rattus norvegicus
- Assay protocol: Open TG-GATES - Regimen: Daily Repeat
- Format: toxicity, organism-based, Sprague-Dawley
- Parameters: regimen Daily Repeat, gender Male, age 6 weeks
- Recorded conditions: in vivo, po, 1000 mg/kg, 72 h, tissue Blood, route gavage, dose level High, time 3 day
Endpoint label: APTT (s)

COc1ccc2[nH]c([S+]([O-])Cc3ncc(C)c(OC)c3C)nc2c1 (stereo not given) [OMEPRAZOLE]    19.8
CCOc1ccc(NC(=O)CC(C)O)cc1 (stereo not given) [BUCETIN]    18.5
CCOC(=O)CCC(=O)O[C@H]1[C@H](O[C@@H]2[C@@H](C)[C@H](O[C@H]3C[C@@](C)(OC)[C@@H](O)[C@H](C)O3)[C@@H](C)C(=O)O[C@H](CC)[C@@](C)(O)[C@H](O)[C@@H](C)C(=O)[C@H](C)C[C@@]2(C)O)O[C@H](C)C[C@@H]1N(C)C [ERYTHROMYCIN ETHYLSUCCINATE]    20.6
COC1=CC(=O)C[C@@H](C)[C@]12Oc1c(Cl)c(OC)cc(OC)c1C2=O [GRISEOFULVIN]    21.1
NC(N)=Nc1nc(CSCCC(N)=NS(N)(=O)=O)cs1 [FAMOTIDINE]    19.5

###

- Species: Rattus norvegicus
- Assay protocol: Open TG-GATES - Regimen: Single
- Assay type: toxicity, organism-based, Sprague-Dawley
- Design: regimen Single, gender Male, age 6 weeks
- Recorded conditions: in vivo, po, 300 mg/kg, 24 h, tissue Blood, route gavage, dose level Middle
Endpoint label: MCV (fL)

CCOC(=O)CCC(=O)O[C@H]1[C@H](O[C@@H]2[C@@H](C)[C@H](O[C@H]3C[C@@](C)(OC)[C@@H](O)[C@H](C)O3)[C@@H](C)C(=O)O[C@H](CC)[C@@](C)(O)[C@H](O)[C@@H](C)C(=O)[C@H](C)C[C@@]2(C)O)O[C@H](C)C[C@@H]1N(C)C [ERYTHROMYCIN ETHYLSUCCINATE]    63.3
COc1ccc2[nH]c([S+]([O-])Cc3ncc(C)c(OC)c3C)nc2c1 (centres undefined)    60.4
NC(N)=Nc1nc(CSCCC(N)=NS(N)(=O)=O)cs1    63.1
COC1=CC(=O)C[C@@H](C)[C@]12Oc1c(Cl)c(OC)cc(OC)c1C2=O    64.5

Value source: ChEMBL document CHEMBL3885861
